- study_target: T1, MSLN·His protein (human, UniProt Q13421 296-580, limits assumed)
- T1 construct: Bought protein; also called human MSLN·His antigen; not shown: His tag
- T1 sequence (Q13421 other isoform, or with tags, fused parts or gaps limits assumed): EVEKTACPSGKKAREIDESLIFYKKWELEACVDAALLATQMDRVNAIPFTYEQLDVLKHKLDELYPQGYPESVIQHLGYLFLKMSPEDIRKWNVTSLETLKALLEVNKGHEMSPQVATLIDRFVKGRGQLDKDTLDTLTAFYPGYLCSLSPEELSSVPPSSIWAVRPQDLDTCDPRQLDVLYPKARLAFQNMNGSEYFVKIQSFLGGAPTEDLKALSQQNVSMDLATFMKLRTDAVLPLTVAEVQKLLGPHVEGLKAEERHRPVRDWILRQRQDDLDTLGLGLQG
- assay_method_text: SPR (Biacore), antibody captured on protein A, MSLN·His as analyte
# koff per entry
measured_attribute: koff (s⁻¹)

>>> number("M2339-z11-5 (antibody, IgG4, V domains shown, Humanized variant of M2339) VH: EVQLVASGGGLVQPGGSLRLSCALSGFTLRELDEFAIGWFRQAPGKEREGVSCISGTGGITHYADSVKGRFTISRDNSKTTVYLQMNSLNAEDTAVYYCAADERCTDRLIRPPTYWGQGTQVTVSS")
0.00878
>>> number("M2339-z11-15 (antibody, IgG4, V domains shown, Humanized variant of M2339) VH: QLQLGASGGGLVQPGGSLRLSCALSGFTLRELDEFAIGWFRQAPGKEREGVSCISGTGGITHYADSVKGRFTISRDIAKTTLYLQMNSLNSEDTAVYYCAADERCTDRLIRPPTYWGQGTQVTVSS")
"1.14e-05"
>>> number("M2339-z11-8 (antibody, IgG4, V domains shown, Humanized variant of M2339) VH: QLQLGESGGGLVQPGGSLRLSCALSGFTLRELDEFAIGWFRQAPGKEREGVSCISGTGGITHYADSVKGRFTISRDIAKTTVYLQMNSLNSEDTAVYYCAADERCTDRLIRPPTYWGQGTQVTVSS")
"1.6e-05"
>>> number("M2339-z11-2 (antibody, IgG4, V domains shown, Humanized variant of M2339) VH: QVQLVASGGGLVQPGGSLRLSCALSGFTLRELDEFAIGWFRQAPGKEREGVSCISGTGGITHYADSVKGRFTISRDNSKTTVYLQMNSLRAEDTAVYYCAADERCTDRLIRPPTYWGQGTQVTVSS")
"1.74e-05"
>>> number("M2339-z11-11 (antibody, IgG4, V domains shown, Humanized variant of M2339) VH: QLQLGASGGGLVQPGGSLRLSCAASGFTLRELDEFAIGWFRQAPGKEREGVSCISGTGGITHYADSVKGRFTISRDIAKTTVYLQMNSLNSEDTAVYYCAADERCTDRLIRPPTYWGQGTQVTVSS")
"1.18e-05"
>>> number("M2339-z11-16 (antibody, IgG4, V domains shown, Humanized variant of M2339) VH: QLQLGASGGGLVQPGGSLRLSCALSGFTLRELDEFAIGWFRQAPGKEREGVSCISGTGGITHYADSVKGRFTISRDIAKTTVYLQMNSLRAEDTAVYYCAADERCTDRLIRPPTYWGQGTQVTVSS")
"6.52e-06"
>>> number("M2339-z11-3 (antibody, IgG4, V domains shown, Humanized variant of M2339) VH: ELQLVASGGGLVQPGGSLRLSCALSGFTLRELDEFAIGWFRQAPGKEREGVSCISGTGGITHYADSVKGRFTISRDNSKTTVYLQMNSLRAEDTAVYYCAADERCTDRLIRPPTYWGQGTQVTVSS")
0.000132
>>> number("M2339-z11-1 (antibody, IgG4, V domains shown, Humanized variant of M2339) VH: EVQLVASGGGLVQPGGSLRLSCALSGFTLRELDEFAIGWFRQAPGKEREGVSCISGTGGITHYADSVKGRFTISRDNSKTTVYLQMNSLRAEDTAVYYCAADERCTDRLIRPPTYWGQGTQVTVSS")
0.00608
